Measured values drawn from paper PMC4387272 for this set.

Test method notes: Non-compartmental plasma pharmacokinetics of galunisertib in patients (LC-MS/MS)
Assay type: in vivo, Human
Experimental conditions: human, plasma, po, 300 mg/day, Part A, 300 mg/day oral BID, day 14 steady state, Cycle 2, patients; read-out: Cmax, ss mean (% CV)
Recorded metric: Cmax (ng/mL)
Numbers only, in ng/mL.

## Task So what's the measured Cmax for this one? `Cc1cccc(-c2nn3c(c2-c2ccnc4ccc(C(N)=O)cc24)CCC3)n1`
## Result 800

====

Test method notes: Non-compartmental plasma pharmacokinetics of galunisertib in patients (LC-MS/MS)
Type: in vivo, Human
Experimental conditions: human, plasma, po, 240 mg/day, Part A, 240 mg/day oral BID, day 14 steady state, Cycle 2, individual patients; read-out: Cmax, ss individual parameters (n <3)
Recorded metric: Cmax (ng/mL)
Numbers only, in ng/mL.

## Task So what's the measured Cmax for this one? `Cc1cccc(-c2nn3c(c2-c2ccnc4ccc(C(N)=O)cc24)CCC3)n1`
## Result 520

====

Test method notes: Non-compartmental plasma pharmacokinetics of galunisertib in patients (LC-MS/MS)
Format: in vivo, Human
Experimental conditions: human, plasma, po, 160 mg/day, Part A, 160 mg/day oral BID, day 14 steady state, Cycle 1, patients; read-out: AUC0,∞ mean (% CV)
Recorded metric: AUC(0-inf) (ng·h/mL)
One number for each entry, in ng·h/mL.

## Task So what's the measured AUC(0-inf) for this one? `Cc1cccc(-c2nn3c(c2-c2ccnc4ccc(C(N)=O)cc24)CCC3)n1`
## Result 2140

====

Test method notes: Non-compartmental plasma pharmacokinetics of galunisertib in patients (LC-MS/MS)
Type: in vivo, Human
Experimental conditions: human, plasma, po, 160 mg/day, Part A, 160 mg/day oral BID, day 14 steady state, Cycle 1, patients; read-out: Cmax, ss mean (% CV)
Recorded metric: Cmax
Report field: quantity (unit follows the number).

## Task So what's the measured Cmax for this one? `Cc1cccc(-c2nn3c(c2-c2ccnc4ccc(C(N)=O)cc24)CCC3)n1`
## Result 630 ng/mL

====

Test method notes: Non-compartmental plasma pharmacokinetics of galunisertib in patients (LC-MS/MS)
Type: in vivo, Human
Experimental conditions: human, plasma, po, 80 mg/day, Part A, 80 mg/day oral BID, day 14 steady state, Cycle 1, patients; read-out: Cmax, ss mean (% CV)
Recorded metric: Cmax (ng/mL)
Give bare numbers, in ng/mL.

## Task So what's the measured Cmax for this one? `Cc1cccc(-c2nn3c(c2-c2ccnc4ccc(C(N)=O)cc24)CCC3)n1`
## Result 350

====

Test method notes: Non-compartmental plasma pharmacokinetics of galunisertib in patients (LC-MS/MS)
Format: in vivo, Human
Experimental conditions: human, plasma, po, 240 mg/day, Part A, 240 mg/day oral BID, day 14 steady state, Cycle 2, individual patients; read-out: AUC0,∞ individual parameters (n <3)
Recorded metric: AUC(0-inf) (ng·h/mL)
Numbers only, in ng·h/mL.

## Task So what's the measured AUC(0-inf) for this one? Cc1cccc(-c2nn3c(c2-c2ccnc4ccc(C(N)=O)cc24)CCC3)n1 [galunisertib]
## Result 2900

====

Test method notes: Non-compartmental plasma pharmacokinetics of galunisertib in patients (LC-MS/MS)
Assay type: in vivo, Human
Experimental conditions: human, plasma, po, 160 mg/day, Part A, 160 mg/day oral BID, day 14 steady state, Cycle 2, patients; read-out: AUC0,∞ mean (% CV)
Recorded metric: AUC(0-inf) (ng·h/mL)
One number for each entry, in ng·h/mL.

## Task So what's the measured AUC(0-inf) for this one? `Cc1cccc(-c2nn3c(c2-c2ccnc4ccc(C(N)=O)cc24)CCC3)n1`
## Result 2430

====

Test method notes: Non-compartmental plasma pharmacokinetics of galunisertib in patients (LC-MS/MS)
Type: in vivo, Human
Experimental conditions: human, plasma, po, 160 mg/day, Part A, 160 mg/day oral BID, day 14 steady state, Cycle 2, patients; read-out: Cmax, ss mean (% CV)
Protocol: Human plasma samples obtained during this study were analyzed at PharmaNet USA, Inc. Princeton, New Jersey, USA. The samples were analyzed for galunisertib levels using 2 validated liquid chromatography with tandem mass spectrometry methods. For the high-range method (PharmaNet USA, Inc. SOP TM.589), the lower limit of quantification was 5.000 ng/mL and the upper limit of quantification was 1000.000 ng/mL. The intra-assay accuracy (% relative error) during validation ranged from 1.800 to 10.222 %. […]
Recorded metric: Cmax (ng/mL)
One number for each entry, in ng/mL.

## Task So what's the measured Cmax for this one? `Cc1cccc(-c2nn3c(c2-c2ccnc4ccc(C(N)=O)cc24)CCC3)n1`
## Result 790

====

Test method notes: Non-compartmental plasma pharmacokinetics of galunisertib in patients (LC-MS/MS)
Format: in vivo, Human
Experimental conditions: human, plasma, po, 240 mg/day, Part A, 240 mg/day oral BID, day 14 steady state, Cycle 1, patients; read-out: AUC0,∞ mean (% CV)
Recorded metric: AUC(0-inf) (ng·h/mL)
One number for each entry, in ng·h/mL.

## Task So what's the measured AUC(0-inf) for this one? Cc1cccc(-c2nn3c(c2-c2ccnc4ccc(C(N)=O)cc24)CCC3)n1 [galunisertib]
## Result 3060

====

Test method notes: Non-compartmental plasma pharmacokinetics of galunisertib in patients (LC-MS/MS)
Type: in vivo, Human
Experimental conditions: human, plasma, po, 300 mg/day, Part A, 300 mg/day oral BID, day 14 steady state, Cycle 1, patients; read-out: AUC0,∞ mean (% CV)
Recorded metric: AUC(0-inf) (ng·h/mL)
Numbers only, in ng·h/mL.

## Task So what's the measured AUC(0-inf) for this one? Cc1cccc(-c2nn3c(c2-c2ccnc4ccc(C(N)=O)cc24)CCC3)n1 [galunisertib]
## Result 3730
